From: the supplement of paper PMC10598134

Hi there, I'd appreciate the recorded collision cross section for every entry that follows.
# method-description: collision cross section of modified peptide (TIMS, N2, iRT-aligned); higher = larger / more extended gas-phase ion
# condition-details: charge state: 2; modification: GlyGly (K)
// return numeric value only (unit: Å², not printed)

Ask: Dear colleague, I am looking for the recorded collision cross section of the following sequence: TLDEILQEKK [_TLDEILQEK(GlyGly (K))K_]
Reply: 390.82

Ask: Another sequence to look at: VETTVTSLKTK [_VETTVTSLK(GlyGly (K))TK_]
Reply: 391.21

Ask: Another sequence to look at: TEVLSPNSKVESK [_TEVLSPNSK(GlyGly (K))VESK_]
Reply: 404.73

Ask: Another sequence to look at: LEKTIDDLEEK [_LEK(GlyGly (K))TIDDLEEK_]
Reply: 403.14

Ask: Another sequence to look at: SLGEPAAGEGSAKR [_SLGEPAAGEGSAK(GlyGly (K))R_]
Reply: 411.44

Ask: Another sequence to look at: DVNAAIAAIKTK [_DVNAAIAAIK(GlyGly (K))TK_]
Reply: 401.67

Ask: Another sequence to look at: FDDTNPEKEEAK [_FDDTNPEK(GlyGly (K))EEAK_]
Reply: 402.92

Ask: Another sequence to look at: ASAISIKLGSSK [_ASAISIK(GlyGly (K))LGSSK_]
Reply: 390.99

Ask: Another sequence to look at: LEQVEKELLR [_LEQVEK(GlyGly (K))ELLR_]
Reply: 394.68

Ask: Another sequence to look at: LEEVTGKLQVAR [_LEEVTGK(GlyGly (K))LQVAR_]
Reply: 407.08

Ask: Another sequence to look at: GFCFITYTDEEPVKK [_GFCFITYTDEEPVK(GlyGly (K))K_]
Reply: 487.35

Ask: Another sequence to look at: LDEKENLSAK [_LDEK(GlyGly (K))ENLSAK_]
Reply: 379.07

Ask: Another sequence to look at: AGPNASIISLKSDK [_AGPNASIISLK(GlyGly (K))SDK_]
Reply: 420.97

Ask: Another sequence to look at: ASEALLKQLK [_ASEALLK(GlyGly (K))QLK_]
Reply: 378.14

Ask: Another sequence to look at: SITHSTVGSKGEK [_SITHSTVGSK(GlyGly (K))GEK_]
Reply: 404.23

Ask: Another sequence to look at: VLTANSNPSSPSAAKR [_VLTANSNPSSPSAAK(GlyGly (K))R_]
Reply: 445.95

Ask: Another sequence to look at: ALASIDSKLNQAK [_ALASIDSK(GlyGly (K))LNQAK_]
Reply: 417.48

Ask: Another sequence to look at: IQTKAGEATVK [_IQTK(GlyGly (K))AGEATVK_]
Reply: 373.63

Ask: Another sequence to look at: SGKFTQQDIDEAK [_SGK(GlyGly (K))FTQQDIDEAK_]
Reply: 414.34

Ask: Another sequence to look at: SDDESSQKDIK [_SDDESSQK(GlyGly (K))DIK_]
Reply: 380.21

Ask: Another sequence to look at: TGGTQTDLFTCGKCK [_TGGTQTDLFTCGK(GlyGly (K))CK_]
Reply: 442.06

Ask: Another sequence to look at: IGNSYFKEEK [_IGNSYFK(GlyGly (K))EEK_]
Reply: 386.48

Ask: Another sequence to look at: SEASSEFAKK [_SEASSEFAK(GlyGly (K))K_]
Reply: 362.55

Ask: Another sequence to look at: VDIDAPDVSIEGPDAKLK [_VDIDAPDVSIEGPDAK(GlyGly (K))LK_]
Reply: 470.72
